# System: human GPR119 (Homo sapiens)
# Construct: expression vector for human GPR119 cDNA (Acc. No. NP_848566); expressed in transfected cells
# Sequence (Q8TDV5 whole entry): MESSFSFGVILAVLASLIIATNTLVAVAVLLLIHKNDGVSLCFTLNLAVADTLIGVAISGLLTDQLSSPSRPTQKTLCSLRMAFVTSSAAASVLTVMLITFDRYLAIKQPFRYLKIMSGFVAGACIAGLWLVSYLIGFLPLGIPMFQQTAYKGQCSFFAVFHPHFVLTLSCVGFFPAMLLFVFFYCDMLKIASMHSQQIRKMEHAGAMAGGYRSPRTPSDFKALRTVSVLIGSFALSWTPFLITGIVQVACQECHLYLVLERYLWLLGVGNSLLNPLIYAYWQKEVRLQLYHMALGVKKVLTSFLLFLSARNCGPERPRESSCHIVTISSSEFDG
# Assay protocol: AlphaScreen cAMP assay in MIN6 cells stably transfected with human GPR119
# Assay type: cell-based
# Test parameters: Min-6/hGPR119 cells, AlphaScreen cAMP Assay Kit, 45 minutes incubation at room temperature
pEC50: −log10 of the molar value.

- Molecule: "CC(C)Oc1nsc(N2CCC(N(C(=O)c3ccc(-c4cnco4)cc3)C3CC3)CC2)n1 [Example 37]"
  System: "human GPR119 (Homo sapiens)"
  pEC50: 7.26
- Molecule: "O=C(c1ccc(-c2cnco2)cc1)N(C1CC1)C1CCN(c2nc(-c3ccc(I)cc3)no2)CC1 [Example 5]"
  System: "human GPR119 (Homo sapiens)"
  pEC50: 7.85
- Molecule: "O=C(c1ccc(-c2cnco2)cc1)N(C1CC1)C1CCN(c2noc(C3CC3)n2)CC1 [Example 51]"
  System: "human GPR119 (Homo sapiens)"
  pEC50: 7.25
- Molecule: "CC(C)c1noc(N2CCC(N(C(=O)c3cc(F)c(-c4cnco4)c(F)c3)C3CC3)CC2)n1 [Example 69]"
  System: "human GPR119 (Homo sapiens)"
  pEC50: 6.70
- Molecule: "CC(C)c1noc(N2CCC(N(C(=O)c3ccc(-c4cnco4)c(F)c3)C3CC3)CC2)n1 [Example 64]"
  System: "human GPR119 (Homo sapiens)"
  pEC50: 8.40
- Molecule: "CC(C)c1noc(N2CCC(N(C(=O)c3ccc(-c4cnco4)cc3)C3CC3)CC2)n1 [Example 1]"
  System: "human GPR119 (Homo sapiens)"
  pEC50: 7.82
- Molecule: "CCCc1nc(N2CCC(N(C(=O)c3ccc(-c4cnco4)cc3)C3CC3)CC2)no1 [Example 59]"
  System: "human GPR119 (Homo sapiens)"
  pEC50: 7.64
- Molecule: "COc1ccc(-c2noc(N3CCC(N(C(=O)c4ccc(-c5cnco5)cc4)C4CC4)CC3)n2)cc1 [Example 44]"
  System: "human GPR119 (Homo sapiens)"
  pEC50: 7.51
- Molecule: "CCc1nc(N2CCC(N(C(=O)c3ccc(-c4cnco4)cc3)C3CC3)CC2)no1 [Example 48]"
  System: "human GPR119 (Homo sapiens)"
  pEC50: 7.33
- Molecule: "Cc1cnc(N2CCC(N(C(=O)c3ccc(-c4cnco4)c(F)c3)C3CC3)CC2)nc1 [Example 70]"
  System: "human GPR119 (Homo sapiens)"
  pEC50: 6.72
- Molecule: "CC(C)(CO)c1noc(N2CCC(N(C(=O)c3ccc(-c4cnco4)cc3)C3CC3)CC2)n1 [Example 58]"
  System: "human GPR119 (Homo sapiens)"
  pEC50: 6.20
- Molecule: "O=C(c1ccc(-c2cnco2)cc1)N(C1CC1)C1CCN(c2nc(-c3ccc(Br)cc3)no2)CC1 [Example 40]"
  System: "human GPR119 (Homo sapiens)"
  pEC50: 7.96
- Molecule: "CC1CN(c2nc(-c3ccccc3)no2)CCC1N(C(=O)c1ccc(-c2cnco2)cc1)C1CC1 (stereo not shown) [Example 54]"
  System: "human GPR119 (Homo sapiens)"
  pEC50: 7.37
- Molecule: "CC(C)(C)c1noc(N2CCC(N(C(=O)c3ccc(-c4cnco4)c(F)c3)C3CC3)CC2)n1 [Example 67]"
  System: "human GPR119 (Homo sapiens)"
  pEC50: 6.73
- Molecule: "CC(C)c1nc(N2CCC(N(C(=O)c3ccc(-c4cnco4)cc3)C3CC3)CC2)no1 [Example 49]"
  System: "human GPR119 (Homo sapiens)"
  pEC50: 7.85
- Molecule: "CCc1cnc(N2CCC(N(C(=O)c3ccc(-c4cnco4)c(F)c3)C3CC3)CC2)cn1 [Example 68]"
  System: "human GPR119 (Homo sapiens)"
  pEC50: 6.68
